Cited source for all entries: patent US8129355B2

- targetOfAssay: Bombyx mori EcR (VP16 fusion, switch construct CVBE) with 6XEcRE LacZ reporter (Bombyx mori)
- Construct: expressed in transfected cells; host or cells: Human 293 kidney (HEK-293) cells, retrovirally infected, clone Z3
- Sequence (P49881 86-606 limits assumed): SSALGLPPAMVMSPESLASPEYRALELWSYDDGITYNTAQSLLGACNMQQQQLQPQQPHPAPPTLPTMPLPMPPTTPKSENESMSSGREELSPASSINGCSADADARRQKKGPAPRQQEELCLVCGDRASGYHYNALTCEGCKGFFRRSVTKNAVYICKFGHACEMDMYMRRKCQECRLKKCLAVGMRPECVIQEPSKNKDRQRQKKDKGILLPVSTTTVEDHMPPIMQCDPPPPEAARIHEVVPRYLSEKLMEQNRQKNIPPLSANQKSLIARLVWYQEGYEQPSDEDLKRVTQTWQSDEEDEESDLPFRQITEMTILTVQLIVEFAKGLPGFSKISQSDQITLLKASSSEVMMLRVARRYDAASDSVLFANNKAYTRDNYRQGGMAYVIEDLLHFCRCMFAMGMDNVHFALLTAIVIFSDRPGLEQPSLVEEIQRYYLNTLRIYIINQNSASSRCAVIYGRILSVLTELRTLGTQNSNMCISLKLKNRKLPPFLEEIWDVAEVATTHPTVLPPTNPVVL
- Sequence (P19793 whole entry partner, the tested form may be a part): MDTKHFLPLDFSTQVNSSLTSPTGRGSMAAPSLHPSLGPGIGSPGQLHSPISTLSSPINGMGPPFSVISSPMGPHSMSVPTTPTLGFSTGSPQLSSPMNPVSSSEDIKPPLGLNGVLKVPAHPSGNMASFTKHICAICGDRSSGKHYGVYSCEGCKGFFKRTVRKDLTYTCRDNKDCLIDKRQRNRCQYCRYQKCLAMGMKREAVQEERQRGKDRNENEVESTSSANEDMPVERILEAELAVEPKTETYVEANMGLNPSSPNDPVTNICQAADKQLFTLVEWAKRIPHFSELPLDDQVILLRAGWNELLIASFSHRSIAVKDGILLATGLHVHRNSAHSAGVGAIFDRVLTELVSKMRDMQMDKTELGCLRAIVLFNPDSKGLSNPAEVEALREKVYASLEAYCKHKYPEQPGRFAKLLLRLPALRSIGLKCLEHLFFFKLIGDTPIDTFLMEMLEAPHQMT
- assayExplanation: Z3 assay: β-galactosidase (LacZ) reporter gene fold induction in stably transformed human 293 kidney cells (clone Z3)
- Type: cell-based
- conditionContext: maximum fold induction at any concentration relative to that of GS-E ligand
- Description: Dr. F. Gage provided a population of stably transformed cells containing CVBE and 6XEcRE as described in Suhr, S. T., Gil, E. B., Senut M. C., Gage, F. H. (1998) Proc. Natl. Acad. Sci. USA 95, 7999-804. […] Dilution cloning was used to isolate individual clones. […] Individual clones were evaluated based on their response in the presence and absence of test ligands. […]
Z3 Rel Max FI under 0.7 gets true (1), anything at or over 0.7 gets false (0).

Enquiry: Determine if CCC(CC)(NC(=O)c1cccc(OC)c1C)C(=O)c1cccc(C)c1 [Example 48] shows Z3 Rel Max FI strictly lower than 0.7.
Return: true (1)

Enquiry: Determine if COc1ccc(C(=O)C2(NC(=O)c3cccc(OC)c3C)CCCCC2)cc1 [Example 46] shows Z3 Rel Max FI strictly lower than 0.7.
Return: true (1)

Enquiry: Determine if COc1cccc(C(=O)NC(C)(C(=O)c2ccc(C)cc2)C(C)C)c1C (stereo not drawn) [Example 33] shows Z3 Rel Max FI strictly lower than 0.7.
Return: true (1)

* * *

Listing of recorded pEC50 by entry.
- targetOfAssay: GAL4 DBD-CfEcR(DEF)/VP16AD-MmRXRE (Choristoneura fumiferana)
- Sequence (O77240 1-513): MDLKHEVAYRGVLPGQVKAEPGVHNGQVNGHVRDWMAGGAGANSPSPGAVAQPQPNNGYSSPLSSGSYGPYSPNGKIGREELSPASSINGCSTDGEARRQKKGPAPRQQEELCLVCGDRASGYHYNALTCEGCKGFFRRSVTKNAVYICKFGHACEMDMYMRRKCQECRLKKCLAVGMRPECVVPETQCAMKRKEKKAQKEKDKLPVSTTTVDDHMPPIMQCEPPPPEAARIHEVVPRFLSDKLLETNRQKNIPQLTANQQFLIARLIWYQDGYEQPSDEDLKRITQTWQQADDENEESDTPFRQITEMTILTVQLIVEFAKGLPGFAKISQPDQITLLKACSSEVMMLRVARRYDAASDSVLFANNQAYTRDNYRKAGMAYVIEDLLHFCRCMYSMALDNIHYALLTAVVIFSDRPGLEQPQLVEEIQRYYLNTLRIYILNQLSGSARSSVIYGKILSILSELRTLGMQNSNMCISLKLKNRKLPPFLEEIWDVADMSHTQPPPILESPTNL
- assayExplanation: cell-based
// scale note: pEC50 = -log10(conc_M); give the bare number

Completed entries (count: 3):
COc1cccc(C(=O)NC2(C(=O)c3cc(C)cc(C)c3)CCSCC2)c1C [Example 28]; 5.49
COc1ccccc1C(=O)C1(NC(=O)c2cccc(OC)c2C)CCCCC1 [Example 45]; 5.87
COc1cccc(C(=O)NC2(C(=O)c3ccc(C)cc3)CCCCC2)c1C [Example 15]; 5.39

I looked up COc1cccc(C(=O)NC2(C(=O)c3cc(C)cc(C)c3)CCCCC2)c1C [Example 11] and its pEC50 for GAL4 DBD-CfEcR(DEF)/VP16AD-MmRXRE (Choristoneura fumiferana) was 5.74

I looked up COc1cccc(C(=O)NC(C)(CC(C)C)C(=O)c2cc(C)cc(C)c2)c1C (stereo not drawn) [Example 55] and its pEC50 for GAL4 DBD-CfEcR(DEF)/VP16AD-MmRXRE (Choristoneura fumiferana) was 5.47

I looked up CCCCC(=O)C1(NC(=O)c2cccc(OC)c2C)CCCCC1 [Example 120] and its pEC50 for GAL4 DBD-CfEcR(DEF)/VP16AD-MmRXRE (Choristoneura fumiferana) was 4.83

I looked up COc1cccc(C(=O)NC2(C(=O)c3ccc(F)c(C)c3)CCCCC2)c1C [Example 18] and its pEC50 for GAL4 DBD-CfEcR(DEF)/VP16AD-MmRXRE (Choristoneura fumiferana) was 5.40

I looked up COc1cc(C(=O)C2(NC(=O)c3cccc(OC)c3C)CCCCC2)cc(OC)c1C [Example 66] and its pEC50 for GAL4 DBD-CfEcR(DEF)/VP16AD-MmRXRE (Choristoneura fumiferana) was 4.62

I looked up COc1cccc(C(=O)NC2(C(=O)c3cc(C)cc(C)c3)CCC2)c1C [Example 14] and its pEC50 for GAL4 DBD-CfEcR(DEF)/VP16AD-MmRXRE (Choristoneura fumiferana) was 5.18

I looked up COc1cccc(C(=O)NC2(C(=O)c3cc(C)cc(C)c3)CCCC2)c1C [Example 10] and its pEC50 for GAL4 DBD-CfEcR(DEF)/VP16AD-MmRXRE (Choristoneura fumiferana) was 5.49
